Source: patent US20230125550A1

- target system: T1, recombinant human CD123-Fc (human, UniProt P26951 19-305)
- T1 construct: not shown: Fc part of CD123-Fc
- T1 sequence: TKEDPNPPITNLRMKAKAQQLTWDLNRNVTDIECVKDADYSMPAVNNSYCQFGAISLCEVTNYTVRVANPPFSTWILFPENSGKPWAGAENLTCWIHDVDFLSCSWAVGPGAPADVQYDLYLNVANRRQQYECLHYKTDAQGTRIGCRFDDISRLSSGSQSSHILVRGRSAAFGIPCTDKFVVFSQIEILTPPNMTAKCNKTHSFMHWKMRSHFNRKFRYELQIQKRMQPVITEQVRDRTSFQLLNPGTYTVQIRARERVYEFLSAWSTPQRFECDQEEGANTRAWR
- protocol: phage ELISA, captured CD123-Fc
quantity name: ELISA_avg (ratio A450 target/IgG1-Fc)
# unit: ratio A450 target/IgG1-Fc | format: bare number

The following binders have reported results that may help.
- binder: "SEQ ID NO: 459 (designed binder, D domain, on phage) MGSWIFFKQDLAEIKLNLEALGGSEAELAWFEDDIAWFESHLQDYKGKGNPEVEALRKEAAAIRDELQAYRHN"
  ELISA_avg, ratio A450 target/IgG1-Fc: 3.8
- binder: "SEQ ID NO: 460 (designed binder, D domain, on phage) MGSWHLFKWTLAEIKYELEALGGSEAELAWFEDDIATFEEELQWYKGKGNPEVEALRKEAAAIRDELQAYRHN"
  ELISA_avg, ratio A450 target/IgG1-Fc: 4
- binder: "SEQ ID NO: 607 (designed binder, D domain, on phage) MGSWYEFEWRLDAIDRRLWALGGSEAELADFEEEIADFEWMLQNYKGKGNPEVEALVDEASAIQTELWAYRHN"
  ELISA_avg, ratio A450 target/IgG1-Fc: 10
- binder: "SEQ ID NO: 549 (designed binder, D domain, on phage) MGSWSEFDQRLEAIWNRLDALGGSEAELADFEREIAYFENQLQWYKGKGNPEVEALNNEAFAIVDELGAYRHN"
  ELISA_avg, ratio A450 target/IgG1-Fc: 3.4

// query Any idea what ELISA_avg was measured for SEQ ID NO: 529 (designed binder, D domain, on phage) MGSWHWFKEDLAMITDVLEALGGSEAELAAFESEIAVFEADLQYYKGKGNPEVEALRKEAAAIRDELQAYRHN ?
// result 5.2

// query Consider the binder shown here: SEQ ID NO: 508 (designed binder, D domain, on phage) MGSWFNFKEELAVIKFQLEALGGSEAELAFFEWVIADFEDDLQEYKGKGNPEVEALRKEAAAIRDELQAYRHN What is its recorded ELISA_avg?
// result 6.1

// query Reported ELISA_avg for SEQ ID NO: 317 (designed binder, D domain, on phage) MGSWAEFEDRLWAIEDRLWALGGSEAELAAFEKEIAAFESELQAYKGKGNPEVEYLREEAAAIRFELQAYRHN : what is it?
// result 6.2
